Answer each item with its documented IC50.
target: UniProt:Q06187

Please tell me the measured IC50 for Cn1cc(-c2nc3c(-c4cc(F)cc(N5CCn6c(cc7c6CC(C)(C)C7)C5=O)c4CO)ccnc3[nH]2)cn1 [Example 10] ; system: UniProt:Q06187. < 100 nM

Please tell me the measured IC50 for CC(C)(C)c1nc(C(=O)NCc2ccc(-c3ccnc4[nH]c(C5CC5)nc34)cc2F)no1 [Example 27] ; system: UniProt:Q06187. < 100 nM

Please tell me the measured IC50 for CC(C)(C)c1cc(C(=O)NCc2ccc(-c3ccnc4[nH]c(C5CCNC(=O)C5)nc34)cc2F)no1 (stereo not drawn) [Example 29] ; system: UniProt:Q06187. 1000 to 5000 nM

====

molecular target: LCK (Homo sapiens (Human), UniProt P06239); assay: Assay E: LCK biochemical assay (HotSpot Kinase Assay); details: read-out: LCK % inhibition at 1 uM test concentration (Assay E)
Sequence (P06239 whole entry): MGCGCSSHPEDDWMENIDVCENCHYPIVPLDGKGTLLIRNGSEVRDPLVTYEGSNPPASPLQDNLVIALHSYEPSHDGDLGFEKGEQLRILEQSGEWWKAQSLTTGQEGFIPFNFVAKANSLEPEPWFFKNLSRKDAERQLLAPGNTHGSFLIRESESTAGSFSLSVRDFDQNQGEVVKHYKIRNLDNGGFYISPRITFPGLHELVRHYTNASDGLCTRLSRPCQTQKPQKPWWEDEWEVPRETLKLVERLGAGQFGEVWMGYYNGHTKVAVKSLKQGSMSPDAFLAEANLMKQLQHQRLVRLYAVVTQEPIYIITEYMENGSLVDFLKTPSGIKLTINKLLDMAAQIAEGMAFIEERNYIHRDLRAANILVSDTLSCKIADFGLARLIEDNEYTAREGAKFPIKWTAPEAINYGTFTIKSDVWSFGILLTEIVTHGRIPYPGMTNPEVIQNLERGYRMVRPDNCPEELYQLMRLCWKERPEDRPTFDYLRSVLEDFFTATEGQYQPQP
Answer each item with its documented inhibition at 1 µM.
Enter your answer as a number in %; do not include the unit.

Identify the reported inhibition at 1 µM for the following entry. CN(C)c1ccc(-c2nc3c(-c4ccc(CNC(=O)c5noc(C(C)(C)C)n5)c(F)c4)ccnc3[nH]2)nc1 [Example 146] 11

Identify the reported inhibition at 1 µM for the following entry. CC(C)(C)c1nc(C(=O)NCc2ccc(-c3ccnc4[nH]c(-c5ccc(N6CCC(F)(F)CC6)cn5)nc34)cc2F)no1 [Example 82] 7.3

Identify the reported inhibition at 1 µM for the following entry. Cn1cc(-c2nc3c(-c4ccc(CN5Cc6cc(C(C)(C)C)sc6C5=O)c(F)c4)ccnc3[nH]2)cn1 [Example 92] 29

Identify the reported inhibition at 1 µM for the following entry. Cn1cc(-c2nc3c(-c4ccc(CNC(=O)c5ccc(C(C)(C)C)cc5)c(C(F)(F)F)c4)ccnc3[nH]2)cn1 [Example 108] 17

Identify the reported inhibition at 1 µM for the following entry. CC(C)(C)c1nnc(C(=O)NCc2ccc(-c3ccnc4[nH]c(C5=CCOCC5)nc34)cc2F)o1 [Example 138] 40

Identify the reported inhibition at 1 µM for the following entry. Cn1cc(-c2nc3c(-c4ccc(CNC(=O)c5cc(C(C)(C)C)no5)c(F)c4)ccnc3[nH]2)cn1 [Example 144] 49

Identify the reported inhibition at 1 µM for the following entry. CC1CN(c2ccc(-c3nc4c(-c5ccc(CNC(=O)c6noc(C(C)(C)C)n6)c(F)c5)ccnc4[nH]3)nc2)CC(C)O1 (stereo not shown) [Example 81] 15

====

pIC50: −log10 of the molar value.
Answer each item with its documented pIC50.

Please tell me the measured pIC50 for CC(C)(C)c1nc(C(=O)NCc2ccc(-c3ccnc4[nH]c(-c5ccc(C(O)CO)cn5)nc34)cc2F)no1 (stereo not shown) [Example 76] ; system: full-length human BTK (Homo sapiens (Human)). > 7.00

Please tell me the measured pIC50 for Cn1cc(-c2nc3c(-c4ccc(CNC(=O)c5nnc(C(C)(C)C)o5)cc4)ccnc3[nH]2)cn1 [Example 109] ; system: full-length human BTK (Homo sapiens (Human)). > 7.00

Please tell me the measured pIC50 for CN(C)c1ccc(-c2nc3c(-c4cccc(N5CCOc6cc(C7CC7)cc(F)c6C5=O)c4CO)ccnc3[nH]2)cc1 [Example 39] ; system: full-length human BTK (Homo sapiens (Human)). > 7.00

Please tell me the measured pIC50 for Cn1cc(-c2nc3c(-c4ccc(CNS(=O)(=O)CC5(CC#N)CC5)c(F)c4)ccnc3[nH]2)cn1 [Example 177] ; system: full-length human BTK (Homo sapiens (Human)). 5.30 to 6.00
